Every entry's value here was drawn from patent US8227625B2.

PARAMETER: melting point

- COMPOUND: "Clc1cc(Cl)c2c(c1)CN(CCC1CCCc3sccc31)CC2.O=C(O)C(=O)O (stereo not drawn) [Example 77]"
  EXPERIMENTAL RESULT: "182 to 184 °C"
- COMPOUND: "CN(C/C=C1\\CCCc2sccc21)CCc1ccccc1.O=C(O)C(=O)O [Example 8]"
  EXPERIMENTAL RESULT: "129 to 130 °C"
- COMPOUND: "Cc1ccccc1C1CCN(CCC2CCCc3sccc32)CC1.O=C(O)C(=O)O (stereo not drawn) [Example 28]"
  EXPERIMENTAL RESULT: "188 to 190 °C"
- COMPOUND: "O=C(O)C(=O)O.O=C1NCCC12CCN(CCC1CCCc3sccc31)CC2 (stereo not drawn) [Example 71]"
  EXPERIMENTAL RESULT: "147 to 149 °C"
- COMPOUND: "CN(C/C=C1\\CCCc2sccc21)Cc1ccccc1.O=C(O)C(=O)O [Example 4]"
  EXPERIMENTAL RESULT: "139 to 141 °C"
- COMPOUND: "COc1ccc(N2CCC3(CCN(CCC4CCCc5sccc54)CC3)C2=O)cc1.O=C(O)C(=O)O (stereo not drawn) [Example 85]"
  EXPERIMENTAL RESULT: "205 to 206 °C"
- COMPOUND: "COc1cccc(C2CCN(CCC3CCCc4sccc43)CC2)c1.O=C(O)C(=O)O (stereo not drawn) [Example 44]"
  EXPERIMENTAL RESULT: "157 to 159 °C"
- COMPOUND: "O=C(O)C(=O)O.c1ccc2c(c1)CN(CCC1CCCc3sccc31)C2 (stereo not drawn) [Example 22]"
  EXPERIMENTAL RESULT: "203 to 205 °C"
- COMPOUND: "O=C(O)C(=O)O.O=C1N(c2ccc(Cl)cc2)CCC12CCN(CCC1CCCc3sccc31)CC2 (stereo not drawn) [Example 69]"
  EXPERIMENTAL RESULT: "218 to 220 °C"

* * *

PARAMETER: melting point

- MOLECULE: "C(/CN1CCC(c2ccccc2)CC1)=C1/CCCc2sccc21.O=C(O)C(=O)O"
  EXPERIMENTAL RESULT: "160 to 163 °C"
- MOLECULE: "O=C(O)C(=O)O.O=C1N(c2ccccc2)CCC12CCN(CCC1CCCc3sccc31)CC2 (centres unmarked)"
  EXPERIMENTAL RESULT: "200 to 201 °C"
- MOLECULE: "O=C(O)C(=O)O.O=C1N(c2ccc(C(F)(F)F)cc2)CCC12CCN(CCC1CCCc3sccc31)CC2 (centres unmarked)"
  EXPERIMENTAL RESULT: "166 to 168 °C"
- MOLECULE: "Fc1cccc(C2CCN(CCC3CCCc4sccc43)CC2)c1.O=C(O)C(=O)O (centres unmarked)"
  EXPERIMENTAL RESULT: "203 to 204 °C"
- MOLECULE: "Fc1ccc(C2CCN(CCC3CCCc4sccc43)CC2)cc1.O=C(O)C(=O)O (centres unmarked)"
  EXPERIMENTAL RESULT: "179 to 181 °C"
- MOLECULE: "Cc1nc2ccccc2n1C1CCN(CCC2CCCc3sccc32)CC1.O=C(O)C(=O)O (centres unmarked)"
  EXPERIMENTAL RESULT: "155 to 157 °C"
- MOLECULE: "Brc1cccc2c1CCN(CCC1CCCc3sccc31)C2.O=C(O)C(=O)O (centres unmarked)"
  EXPERIMENTAL RESULT: "167 to 168 °C"
- MOLECULE: "COc1ccc(C2CCN(CCC3CCCc4sccc43)CC2)cc1.O=C(O)C(=O)O (centres unmarked)"
  EXPERIMENTAL RESULT: "175 to 176 °C"
- MOLECULE: "C(/CN1CCCCC1)=C1/CCCc2sccc21.O=C(O)C(=O)O"
  EXPERIMENTAL RESULT: "148 to 150 °C"
- MOLECULE: "N#Cc1ccc2c(c1)CN(CCC1CCCc3sccc31)CC2.O=C(O)C(=O)O (centres unmarked)"
  EXPERIMENTAL RESULT: "180 to 181 °C"
- MOLECULE: "FC(F)(F)c1ccc(C2CCN(CCC3CCCc4sccc43)CC2)cc1.O=C(O)C(=O)O (centres unmarked)"
  EXPERIMENTAL RESULT: "180 to 182 °C"
- MOLECULE: "O=C(O)C(=O)O.c1ccc2oc(C3CCN(CCC4CCCc5sccc54)CC3)cc2c1 (centres unmarked)"
  EXPERIMENTAL RESULT: "207 to 208 °C"
- MOLECULE: "O=C(O)C(=O)O.O=C1N(Cc2ccccc2)CCC12CCN(CCC1CCCc3sccc31)CC2 (centres unmarked)"
  EXPERIMENTAL RESULT: "170 to 171 °C"
- MOLECULE: "C1=CC2(CCN(CCC3CCCc4sccc43)CC2)c2ccccc21.O=C(O)C(=O)O (centres unmarked)"
  EXPERIMENTAL RESULT: "198 to 199 °C"
- MOLECULE: "COc1ccccc1C1CCN(CCC2CCCc3sccc32)CC1.O=C(O)C(=O)O (centres unmarked)"
  EXPERIMENTAL RESULT: "160 to 162 °C"
- MOLECULE: "C(/CN1CCOCC1)=C1/CCCc2sccc21.O=C(O)C(=O)O"
  EXPERIMENTAL RESULT: "171 to 174 °C"
- MOLECULE: "O=C(O)C(=O)O.c1ccc2c(C3CCN(CCC4CCCc5sccc54)CC3)csc2c1 (centres unmarked)"
  EXPERIMENTAL RESULT: "190 to 192 °C"
- MOLECULE: "CC(C)(C)N1CCC2(CCN(CCC3CCCc4sccc43)CC2)C1=O.O=C(O)C(=O)O (centres unmarked)"
  EXPERIMENTAL RESULT: "172 to 173 °C"
- MOLECULE: "CN(CCC1CCCc2sccc21)Cc1ccccc1.O=C(O)C(=O)O (centres unmarked)"
  EXPERIMENTAL RESULT: "168 to 171 °C"
- MOLECULE: "O=C(O)C(=O)O.c1ccc2c(c1)ccn2C1CCN(CCC2CCCc3sccc32)CC1 (centres unmarked)"
  EXPERIMENTAL RESULT: "162 to 164 °C"
- MOLECULE: "O=C(O)C(=O)O.c1ccc2[nH]c(C3CCN(CCC4CCCc5sccc54)CC3)nc2c1 (centres unmarked)"
  EXPERIMENTAL RESULT: "223 to 225 °C"
- MOLECULE: "O=C(O)C(=O)O.OC1(c2ccc(Cl)cc2)CCN(CCC2CCCc3sccc32)CC1 (centres unmarked)"
  EXPERIMENTAL RESULT: "184 to 185 °C"
- MOLECULE: "Clc1ccc(C2CCN(CCC3CCCc4sccc43)CC2)cc1.O=C(O)C(=O)O (centres unmarked)"
  EXPERIMENTAL RESULT: "201 to 202 °C"
- MOLECULE: "O=C(O)C(=O)O.O=C1N(c2ccc(F)cc2)CCC12CCN(CCC1CCCc3sccc31)CC2 (centres unmarked)"
  EXPERIMENTAL RESULT: "195 to 199 °C"
- MOLECULE: "FC(F)(F)c1cc(C2CCN(CCC3CCCc4sccc43)CC2)cc(C(F)(F)F)c1.O=C(O)C(=O)O (centres unmarked)"
  EXPERIMENTAL RESULT: "205 to 206 °C"
- MOLECULE: "O=C(O)C(=O)O.c1ccc2cc(C3CCN(CCC4CCCc5sccc54)CC3)ccc2c1 (centres unmarked)"
  EXPERIMENTAL RESULT: "203 to 205 °C"
- MOLECULE: "O=C(O)C(=O)O.c1ccc2c(C3CCN(CCC4CCCc5sccc54)CC3)cccc2c1 (centres unmarked)"
  EXPERIMENTAL RESULT: "197 to 198 °C"
- MOLECULE: "Fc1ccccc1C1CCN(CCC2CCCc3sccc32)CC1.O=C(O)C(=O)O (centres unmarked)"
  EXPERIMENTAL RESULT: "208 to 209 °C"
- MOLECULE: "Clc1cccc(C2CCN(CCC3CCCc4sccc43)CC2)c1.O=C(O)C(=O)O (centres unmarked)"
  EXPERIMENTAL RESULT: "185 to 186 °C"

* * *

- MEASUREMENT TARGET: Sigma-1 receptor (Cavia porcellus, UniProt Q60492)
- Construct: from tissue; host or cells: guinea pig brain membranes
- Sequence (Q60492 whole entry): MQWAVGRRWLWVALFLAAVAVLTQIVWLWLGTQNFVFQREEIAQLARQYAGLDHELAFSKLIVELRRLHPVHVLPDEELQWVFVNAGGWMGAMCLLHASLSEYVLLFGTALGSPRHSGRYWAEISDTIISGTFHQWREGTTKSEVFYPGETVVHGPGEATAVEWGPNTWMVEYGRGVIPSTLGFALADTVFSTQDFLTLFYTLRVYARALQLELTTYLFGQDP
- EXPERIMENTAL PROTOCOL: Sigma-1 receptor radioligand binding assay, [3H](+)-pentazocine, guinea pig brain membranes
- ASSAY CONDITIONS: compound at 10^−7M, [3H](+)-pentazocine 0.5 nM
% Binding σ1 10^−7M less than 70% is Condition met; % Binding σ1 10^−7M greater than or equal to 70% is Condition not met.

- SMILES TEXT: "C(/CN1CCCCC1)=C1/CCCc2sccc21"
  GROUP LABEL: "Condition met"
- SMILES TEXT: "CN(C/C=C1\\CCCc2sccc21)CCc1ccccc1"
  GROUP LABEL: "Condition not met"
- SMILES TEXT: "C(/CN1CCC(c2ccccc2)CC1)=C1/CCCc2sccc21"
  GROUP LABEL: "Condition not met"
